This listing pairs compounds with measured largest response in the series, negative = inhibition.
# Study system: 4'-phosphopantetheinyl transferase ffp (Bacillus subtilis)
# Test: qHTS Assay for Inhibitors of Bacillus subtilis Sfp phosphopantetheinyl transferase (PPTase);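 note: the enzyme is Sfp with the accession as filed and its product quenches rhodamine fluorescence; 0% = enzyme reaction without inhibitor and -100% = no enzyme wells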
# Run conditions: Biochemical Sfp PPTase activity
In all, about 310,000 compounds went through this assay and about 11,000 (3.5%) were called active. About 4% were inconclusive and are not listed. The sample holds actives, similar compounds and a random draw of the others, so the mix is not that of the screen.
Recorded endpoint: largest response in the series, negative = inhibition (%)

                                    compound  units_of_measure  measured_number
 0          Cc1cc(C)cc(NC(=S)NCCCN2CCOCC2)c1                 %             3.01
 1       CC(=O)Nc1ccc(/C=N/NC(=O)c2cccs2)cc1                 %             9.99
 2  CC(C)(Oc1ccc(C2CC2(Cl)Cl)cc1)C(=O)O (stereo not drawn)                 %               18
 3  Cc1ccc2nc(Nc3ncc4c(n3)CC(C)(C)CC4=O)nc(C)c2c1                 %             4.59
 4  O=S(=O)(c1ccccc1)c1nc(-c2ccccc2)oc1NCCCN1CCOCC1                 %             11.1
 5  CCOc1ccccc1NS(=O)(=O)c1c[nH]c(C(=O)OC)c1                 %             4.59
 6                 CCCn1c(SCC(N)=O)nnc1C(C)C                 %             10.5
 7  Cc1ccc(C(=O)CSc2nnc(Cn3nnc4ccccc43)n2C)cc1                 %                4
 8  CC(NC(=O)COc1ccc(-c2ccccc2)cc1)C1CCCO1 (stereo not drawn)                 %            -4.17
 9  CCCSc1nc(NCc2ccco2)c2c3c(sc2n1)COC(C)(CC)C3 (stereo not drawn)                 %            -1.25
10  Cc1cccc(N2CCN(C(=O)c3cccc(N4C(=O)C5C6C=CC(C6)C5C4=O)c3)CC2)c1C (stereo not drawn)                 %             14.6
11     Cc1ccc(-c2nc(C#N)c(NCCCn3ccnc3)o2)cc1                 %            -4.22
12  Cc1cccc(N2CCN(S(=O)(=O)c3ccc(-c4cc(C)no4)s3)CC2C)c1 (stereo not drawn)                 %             13.1
13  COCCCNC(=O)C1CC(=O)N(CCc2ccccc2)C1 (stereo not drawn)                 %             9.12
14        COc1cc(S(=O)(=O)Nc2ncn[nH]2)ccc1Cl                 %            -14.8
15  COc1cc(C(=O)NCc2cc3cc(Cl)ccc3n2C)cc(OC)c1OC                 %             9.69
16   Cn1c(CNC(=O)c2ccccc2F)nnc1SCc1ccc(F)cc1                 %            -14.5
17  CC1(C)CC(CC(=O)O)C(=O)O1 (stereo not drawn)                 %            -8.59
18  CCOc1cc(/C=N/NC(=O)c2cc(-c3ccccc3)nc3ccccc23)ccc1O                 %             10.1
19  COc1ccc(CN2CCN(C(=O)CCC(=O)Nc3nnc(C(C)C)s3)CC2)cc1F                 %             17.5
20  Cn1c(=O)n(Cc2ccco2)c(=N)c2c3c(sc21)CCCC3                 %            -9.41
21  Cc1cc(-c2ccc(S(=O)(=O)N3CCN(c4cccc(C(F)(F)F)c4)CC3)s2)on1                 %             8.41
22  COc1ccc(CCNC(=O)NS(=O)(=O)c2ccc(C)cc2)cc1OC                 %             17.5
